These entries and their values trace back to ChEMBL document CHEMBL5532652.

test system: RAW264.7; assay: Anti-inflammatory activity in mouse RAW264.7 cells assessed as inhibition of LPS-induced NO production at 10 uM incubated pretreated with compound for 1 hr followed by LPS-induction and measured after 24 hrs by Griess reagent based assay relative to control; format: functional; conditions: time 25 hrs
endpoint_label: inhibition at 10 µM (%)

molecule_smiles	reported_measurement
C=CCOc1ccc(/C=C/c2cc(OC)cc(OC)c2-c2cnnn2C(=O)NCCC)cc1	81.1
C=CCCOc1ccc(/C=C/c2cc(OC)cc(OC)c2-c2cnn[nH]2)cc1	46.9
C=CCCOc1ccc(/C=C/c2cc(OC)cc(OC)c2-c2cnnn2C(=O)NC(C)C)cc1	61.3
C=C(C)COc1ccc(/C=C/c2cc(OC)cc(OC)c2-c2cnnn2C(=O)NC(C)C)cc1	48.2
C=CCCCOc1ccc(/C=C/c2cc(OC)cc(OC)c2-c2cnnn2C(=O)NCCCl)cc1	85.9
C=C(C)COc1ccc(/C=C/c2cc(OC)cc(OC)c2-c2cnnn2C(=O)NCC)cc1	43.6
C=C(C)COc1ccc(/C=C/c2cc(OC)cc(OC)c2-c2cnn[nH]2)cc1	74.2
C=CCCCOc1ccc(/C=C/c2cc(OC)cc(OC)c2-c2cnnn2C(=O)NCC)cc1	49.6
C=CCCOc1ccc(/C=C/c2cc(OC)cc(OC)c2-c2cnnn2C(=O)NCCc2ccccc2)cc1	64.6
